# System: 817829-284-R-J1-PDC multi-cell spheroid viability;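 note: spheroids exposed to agents for seven days before readout; percent of vehicle DMSO control viability which is 100%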
# assay-info: Anticancer human tumor 817829-284-R-J1-PDC patient-derived colon adenocarcinoma cell line growth inhibition [PI3K]
# run-parameters: second compound 0.01 µM; first compound 3.16 µM; active compounds read low
The reader will find reported viability, T/C values listed item by item below.
Report only the number, with the unit % understood.

Use the examples below as a reference point.
**Q:** Return viability, T/C for the following compound: CC(Cn1ccc(-c2ccc(C#N)c(Cl)c2)n1)NC(=O)c1cc(C(C)O)[nH]n1 (stereo not given) + CC(Nc1ccc2c(c1)OCCn1cc(N3C(=O)OCC3C(F)F)nc1-2)C(N)=O
**A:** 63.5

**Q:** Return viability, T/C for the following compound: CCCS(=O)(=O)Nc1ccc(F)c(C(=O)c2c[nH]c3ncc(-c4ccc(Cl)cc4)cc23)c1F + CC(Nc1ccc2c(c1)OCCn1cc(N3C(=O)OCC3C(F)F)nc1-2)C(N)=O
**A:** 49.7

**Q:** Return viability, T/C for the following compound: CNC(=O)c1ccc(N2C(=S)N(c3ccc(C#N)c(C(F)(F)F)c3)C(=O)C2(C)C)cc1F + CC(Nc1ccc2c(c1)OCCn1cc(N3C(=O)OCC3C(F)F)nc1-2)C(N)=O
**A:** 60.5

**Q:** Return viability, T/C for the following compound: C=CC(=O)N1CCN(c2nc(=O)n(-c3c(C)ccnc3C(C)C)c3nc(-c4c(O)cccc4F)c(F)cc23)C(C)C1 (stereo not given) + CC(Nc1ccc2c(c1)OCCn1cc(N3C(=O)OCC3C(F)F)nc1-2)C(N)=O
**A:** 84.8

Consider the additional compound presented here.
**Q:** Return viability, T/C for the following compound: C#Cc1c(F)ccc2cc(O)cc(-c3ncc4c(N5CC6CCC(C5)N6)nc(OCC56CCCN5CC(F)C6)nc4c3F)c12 (stereo not given) + CC(Nc1ccc2c(c1)OCCn1cc(N3C(=O)OCC3C(F)F)nc1-2)C(N)=O
**A:** 56.1
